Data provenance is the supplement of paper PMC8728848.

# reported glycan array binding signal (z-score); entries follow
system under test: MurNAc(b1-4)GlcNAc
method: glycan array binding signal (z-score within array); higher = stronger binding
protocol conditions: glycan notation: IUPAC condensed, linker removed
The full list was thinned out, with the strongest signals kept by preference.
Output spec: single numeric token, no unit.

RobpsCRA (Robinia pseudoacacia) (protein) IKGGYWYSGSGLAVSDINPSHFTHLFCAFADLDPNTNKLTISSSNAAAFSTFTQTVRAKNPSVKTLLSIGGGGGRALAAVFANMASQASRRKSFIDSSIQLARRNNFHGLDLDWEYPSSDIDKTNFASLIREWRAAVATESSTSGTPALLLSAAVGGSDQITPLKYYPGEAIANNLDWVNVMTYDLYTSDSYPTLTQPPAPLFYPRGIFSADEGITKWIQSGVPESKLALGLPFYGFKWRLSDPNNHGLFAPATQGLGAVKYKDIVNTGGQVEFDSTYVTNYCFKGTDWYGYDDTQSISAKVAYAKQRGLFGYFAWHIEQDSNWALS : -0.389
OGAN (protein) MVQKESQATLEERESELSSNPAASAGASLEPPAAPAPGEDNPAGAGGAAVAGAAGGARRFLCGVVEGFYGRPWVMEQRKELFRRLQKWELNTYLYAPKDDYKHRMFWREMYSVEEAEQLMTLISAAREYEIEFIYAISPGLDITFSNPKEVSTLKRKLDQVSQFGCRSFALLFNDIDHNMCAADKEVFSSFAHAQVSITNEIYQYLGEPETFLFCPTEYCGTFCYPNVSQSPYLRTVGEKLLPGIEVLWTGPKVVSKEIPVESIEEVSKIIKRAPVIWDNIHANDYDQKRLFLGPYKGRSTELIPRLKGVLTNPNCEFEANYVAIHTLATWYKSNMNGVRKDVVMTDSEDSTVSIQIKLENEGSDEDIETDVLYSPQMALKLALTEWLQEFGVPHQY : -0.024
his-Lectin-24A (Drosophila melanogaster) (protein) MFRLSVLVLNLLLVSHEFSAGTAKIEIQPLPALCNGYCFPTLKPVMEYVAIHQDKWNTCTEILANEARKDQIQLNIQLDALKADVSNIKASQLSKDEKLDRMEREQFAMHESLETINRYLTVKLDRTKLQLEAIKNTMDYMKAQMDGYFSAINGVQCLQPGFEKIGDRYFYIEEDVELNWLDAQAKCRRMGGHLASIKTKQEFDAIVEKLDDSKSYFLGVNENTKTGDFVSAASGKSCLYHEWGPGEPHHNNDQERCVSILRKLMHVGNCTYEKRFICQYGI : -0.281
DC-Sign-R (Homo sapiens), Q9H2X3 (protein) MSDSKEPRVQQLGLLEEDPTTSGIRLFPRDFQFQQIHGHKSSTGCLGHGALVLQLLSFMLLAGVLVAILVQVSKVPSSLSQEQSEQDAIYQNLTQLKAAVGELSEKSKLQEIYQELTQLKAAVGELPEKSKLQEIYQELTRLKAAVGELPEKSKLQEIYQELTRLKAAVGELPEKSKLQEIYQELTRLKAAVGELPEKSKLQEIYQELTELKAAVGELPEKSKLQEIYQELTQLKAAVGELPDQSKQQQIYQELTDLKTAFERLCRHCPKDWTFFQGNCYFMSNSQRNWHDSVTACQEVRAQLVVIKTAEEQNFLQLQTSRSNRFSWMGLSDLNQEGTWQWVDGSPLSPSFQRYWNSGEPNNSGNEDCAEFSGSGWNDNRCDVDNYWICKKPAACFRDE : 0.448

Read the next record carefully.
Request: Give me measured glycan array binding signal (z-score), please, for this binder: CPA (Cicer arietinum) (protein) MAFSYLNLVLVTLTTLFFLQTTKVKSQKSVSFHITNFTISRPSITLQGTAEFLPNVLLLNDIEHPVFVVGRALYSKPITLWNNKTGKVASFVTSFTFDVQDLKKTVPGHGLVFFLAPSGSEIPFSSDGGNLGVVDGKNAFNRFVGVEFDNFVNSWDPKYSHVGINVNSLISTKTVKWNRVSGELVKVSIVYDSVSTTLTVIVTYKNGQISILSQLVDLKAVLPDTVNIGFSASTTLVSPRQLHNIHSWSFTSTFET
Response: 0.406
